Values compiled from ChEMBL document CHEMBL1133213.

Molecular target: Metabotropic glutamate receptor 4 (Homo sapiens, UniProt Q14833)
Sequence (Q14833 whole entry): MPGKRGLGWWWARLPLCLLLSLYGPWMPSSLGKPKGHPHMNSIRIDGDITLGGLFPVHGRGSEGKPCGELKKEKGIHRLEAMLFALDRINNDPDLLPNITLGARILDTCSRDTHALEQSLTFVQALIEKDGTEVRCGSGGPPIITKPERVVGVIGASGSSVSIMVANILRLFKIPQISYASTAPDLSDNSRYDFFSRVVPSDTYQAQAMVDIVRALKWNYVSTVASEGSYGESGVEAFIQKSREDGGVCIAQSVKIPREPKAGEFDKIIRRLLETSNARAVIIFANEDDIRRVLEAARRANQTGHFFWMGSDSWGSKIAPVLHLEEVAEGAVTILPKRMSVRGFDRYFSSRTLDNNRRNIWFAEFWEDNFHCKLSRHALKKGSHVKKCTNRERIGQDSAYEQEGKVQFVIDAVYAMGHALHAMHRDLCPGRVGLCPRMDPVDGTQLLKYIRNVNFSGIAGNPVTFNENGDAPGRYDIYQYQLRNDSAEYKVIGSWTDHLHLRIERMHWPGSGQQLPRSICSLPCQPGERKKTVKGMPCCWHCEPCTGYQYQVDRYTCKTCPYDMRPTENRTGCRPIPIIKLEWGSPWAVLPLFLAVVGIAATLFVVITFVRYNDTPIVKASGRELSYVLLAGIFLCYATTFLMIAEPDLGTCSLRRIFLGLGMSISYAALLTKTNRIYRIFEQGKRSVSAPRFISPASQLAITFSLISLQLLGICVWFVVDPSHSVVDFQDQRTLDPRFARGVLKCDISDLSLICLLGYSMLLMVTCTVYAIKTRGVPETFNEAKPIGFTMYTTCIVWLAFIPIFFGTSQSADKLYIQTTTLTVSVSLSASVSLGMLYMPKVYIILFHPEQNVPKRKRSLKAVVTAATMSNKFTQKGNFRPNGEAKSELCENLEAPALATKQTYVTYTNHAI
Assay: Inhibition of forskolin-stimulated cAMP accumulation in CHO cells expressing hmGlu4a
Format: functional, cell-based
pIC50: −log10 of the molar value.
Documented pIC50 across a set of compounds

NC1(C(=O)O)C=C(P(=O)(O)O)CC1 (configuration not stated) : < 4.00

Q. Which pIC50 value is on record for NC1(C(=O)O)CC=C(P(=O)(O)O)C1 (configuration not stated) ?
A. < 4.00

----------
Biological target: Metabotropic glutamate receptor 4 (Homo sapiens, UniProt Q14833)
Assay: Agonistic activity at Metabotropic glutamate receptor 4 expressed in mammalian cells by GTPgammaS binding assay
Assay type: cell-based
quantity measured: EC50 (µM)
Value expressed in µM; do not type the unit.

Q. Which EC50 value is on record for N[C@@H](COP(=O)(O)O)C(=O)O ?
A. 1

Q. For NC(C(=O)O)c1ccc(P(=O)(O)O)cc1 (centres undefined) then?
A. 4.7

Q. For N[C@@]1(C(=O)O)C[C@H](C(=O)O)[C@H](C(=O)O)C1 then?
A. 7

Q. For NC1(C(=O)O)C[C@@H](C(=O)O)[C@H](C(=O)O)C1 then?
A. 9

Q. For N[C@]1(C(=O)O)C[C@@H]1CP(=O)(O)O then?
A. 0.58

Q. For N[C@@]1(C(=O)O)CC[C@H](P(=O)(O)O)C1 then?
A. 86

Q. For N[C@@]1(C(=O)O)CCC(P(=O)(O)O)C1 (single isomer, unassigned) then?
A. 27

Q. For N[C@]1(C(=O)O)C[C@H]1CP(=O)(O)O then?
A. 7.9

Q. For N[C@@H](CCP(=O)(O)O)C(=O)O then?
A. 0.5

----------
Target: Metabotropic glutamate receptor 2 (Homo sapiens, UniProt Q14416)
Sequence (Q14416 whole entry): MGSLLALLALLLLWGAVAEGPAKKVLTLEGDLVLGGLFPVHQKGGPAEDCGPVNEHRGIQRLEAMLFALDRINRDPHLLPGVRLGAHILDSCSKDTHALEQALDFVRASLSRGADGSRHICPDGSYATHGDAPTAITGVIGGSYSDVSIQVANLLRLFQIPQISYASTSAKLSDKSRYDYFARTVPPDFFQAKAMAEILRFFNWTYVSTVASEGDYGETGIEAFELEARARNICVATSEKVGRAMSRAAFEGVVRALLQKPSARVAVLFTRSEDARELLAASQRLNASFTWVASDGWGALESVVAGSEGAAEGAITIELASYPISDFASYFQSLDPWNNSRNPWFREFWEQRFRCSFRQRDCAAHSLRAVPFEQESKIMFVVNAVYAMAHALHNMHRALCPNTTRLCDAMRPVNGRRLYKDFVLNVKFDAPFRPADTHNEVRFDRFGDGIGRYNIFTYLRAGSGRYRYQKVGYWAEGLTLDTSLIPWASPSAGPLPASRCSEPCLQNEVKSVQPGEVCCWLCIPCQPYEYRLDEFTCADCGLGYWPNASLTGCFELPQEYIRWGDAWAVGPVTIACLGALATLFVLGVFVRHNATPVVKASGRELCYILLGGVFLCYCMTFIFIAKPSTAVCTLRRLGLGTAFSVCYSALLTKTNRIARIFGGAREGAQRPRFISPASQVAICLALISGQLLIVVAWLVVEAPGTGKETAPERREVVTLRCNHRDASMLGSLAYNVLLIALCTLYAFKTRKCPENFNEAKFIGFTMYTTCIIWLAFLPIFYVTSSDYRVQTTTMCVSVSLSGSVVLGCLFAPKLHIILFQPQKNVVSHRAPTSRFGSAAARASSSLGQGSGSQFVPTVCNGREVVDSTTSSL
Test: Agonistic activity on Human Metabotropic glutamate receptor 2 expressed in recombinant mammalian cells by GTPgammaS binding assay
Format: cell-based
pEC50: −log10 of the molar value.
quantity measured: pEC50

Q. Which pEC50 value is on record for NC1(C(=O)O)CC=C(P(=O)(O)O)C1 (stereo unspecified) ?
A. < 3.52

----------
Documented IC50 across a set of molecules
Target: Metabotropic glutamate receptor 4 (Homo sapiens, UniProt Q14833)
Test: Inhibitory concentration on Human mGlu4 receptor expressed in recombinant mammalian cells by GTPgammaS binding assay
Type: cell-based

NC1(C(=O)O)C=C(P(=O)(O)O)CC1 (configuration not stated) : > 100 µM

Attention now shifts to the item below.
Q. Which IC50 value is on record for NC1(C(=O)O)CC=C(P(=O)(O)O)C1 (configuration not stated) ?
A. > 100 µM

----------
Molecular target: Metabotropic glutamate receptor 4 (Homo sapiens)
Assay: Agonistic activity on Human mGlu4a receptor expressed in recombinant mammalian cells by GTPgammaS binding assay
Format: cell-based
quantity measured: pEC50
The quantity pEC50 is defined as the negative base-10 logarithm of the molar concentration.

Q. Which pEC50 is reported with Metabotropic glutamate receptor 4 (Homo sapiens) for this entry: NC1(C(=O)O)CC=C(P(=O)(O)O)C1 (stereo unspecified) ?
A. 4.77

----------
Molecular target: Metabotropic glutamate receptor 2 (Homo sapiens)
Assay: Inhibitory concentration on Human mGlu2 receptor expressed in recombinant mammalian cells by GTPgammaS binding assay
Type: cell-based
pIC50: −log10 of the molar value.
quantity measured: pIC50

Q. Which pIC50 value is on record for NC1(C(=O)O)C=C(P(=O)(O)O)CC1 (stereo unspecified) ?
A. < 3.70
